TARGET_OF_ASSAY: Bromodomain-containing protein 4 (Homo sapiens)
TEST_DESCRIPTION: Inhibition of His/thioredoxin-tagged human recombinant BRD4 bromodomain-1 (43 to 166 residues) expressed in Escherichia coli BL21 Star (DE3) pre-incubated for 30 mins followed by biotinylated histone peptide H4 addition measured after 30 mins by AlphaScreen assay
Quick list: IC50 per entry.

{"MOLECULE": "O=c1[nH]c(-c2ccc(O)cc2)nc2sc3c(c12)CCCC3", "TARGET_OF_ASSAY": "Bromodomain-containing protein 4 (Homo sapiens)", "IC50": "7.32 µM"}
{"MOLECULE": "Cc1cc(-c2nc3sc4c(c3c(=O)[nH]2)CCN(C)C4)cc(C)c1O", "TARGET_OF_ASSAY": "Bromodomain-containing protein 4 (Homo sapiens)", "IC50": "0.43 µM"}
{"MOLECULE": "O=c1[nH]c(-c2ccc(F)cc2F)nc2sc3c(c12)CCCC3", "TARGET_OF_ASSAY": "Bromodomain-containing protein 4 (Homo sapiens)", "IC50": "> 10 µM"}
{"MOLECULE": "O=c1[nH]c(-c2ccc(C(F)(F)F)cc2)nc2sc3c(c12)CCC3", "TARGET_OF_ASSAY": "Bromodomain-containing protein 4 (Homo sapiens)", "IC50": "1.53 µM"}
{"MOLECULE": "COc1cccc(-c2nc(=O)c3c4c(sc3[nH]2)CC(C)CC4)c1 (stereo not given)", "TARGET_OF_ASSAY": "Bromodomain-containing protein 4 (Homo sapiens)", "IC50": "> 10 µM"}
{"MOLECULE": "O=c1[nH]c(-c2ccc(C(F)(F)F)cc2)nc2sc3c(c12)CCCC3", "TARGET_OF_ASSAY": "Bromodomain-containing protein 4 (Homo sapiens)", "IC50": "> 10 µM"}
{"MOLECULE": "CC1CCc2c(sc3nc(Cc4ccc(-c5ccccc5)cc4)[nH]c(=O)c23)C1 (stereo not given)", "TARGET_OF_ASSAY": "Bromodomain-containing protein 4 (Homo sapiens)", "IC50": "> 10 µM"}
{"MOLECULE": "O=c1[nH]c(-c2ccc(C(F)(F)F)cc2)nc2sc3c(c12)CCN(Cc1ccccc1)C3", "TARGET_OF_ASSAY": "Bromodomain-containing protein 4 (Homo sapiens)", "IC50": "> 10 µM"}
{"MOLECULE": "CC1CCc2c(sc3nc(-c4ccc(Br)cc4)[nH]c(=O)c23)C1 (stereo not given)", "TARGET_OF_ASSAY": "Bromodomain-containing protein 4 (Homo sapiens)", "IC50": "> 10 µM"}
{"MOLECULE": "O=c1[nH]c(-c2ccc(Br)cc2)nc2sc3c(c12)CCCCC3", "TARGET_OF_ASSAY": "Bromodomain-containing protein 4 (Homo sapiens)", "IC50": "> 10 µM"}

====

Quick list: pIC50 per entry.
System: MDA-MB-231
TEST_DESCRIPTION: Antiproliferative activity against human MDA-MB-231 cells after 24 hrs by MTT assay
Type: functional, cell-based
RUN_PARAMETERS: MDA-MB-231, 24 h
pIC50: −log10 of the molar value.

{"MOLECULE": "CC1CCc2c(sc3nc(Cc4ccc(-c5ccccc5)cc4)[nH]c(=O)c23)C1 (stereo unspecified)", "MEASUREMENT_QUALIFIER": "<", "pIC50": 4.52}
{"MOLECULE": "O=c1[nH]c(-c2ccc(C(F)(F)F)cc2)nc2sc3c(c12)CCC3", "MEASUREMENT_QUALIFIER": "=", "pIC50": 4.83}
{"MOLECULE": "Cc1cc(-c2nc3sc4c(c3c(=O)[nH]2)CCC(C)C4)cc(C)c1O (stereo unspecified)", "MEASUREMENT_QUALIFIER": "=", "pIC50": 5.03}
{"MOLECULE": "Cc1cc(-c2nc3sc4c(c3c(=O)[nH]2)CCC4)cc(C)c1O", "MEASUREMENT_QUALIFIER": "=", "pIC50": 4.64}
{"MOLECULE": "CC1CCc2c(sc3nc(-c4cccc(O)c4)[nH]c(=O)c23)C1 (stereo unspecified)", "MEASUREMENT_QUALIFIER": "<", "pIC50": 4.52}
{"MOLECULE": "O=c1[nH]c(Cc2ccc(-c3ccccc3)cc2)nc2sc3c(c12)CCCCC3", "MEASUREMENT_QUALIFIER": "<", "pIC50": 4.52}
{"MOLECULE": "COc1cccc(-c2nc(=O)c3c4c(sc3[nH]2)CC(C)CC4)c1 (stereo unspecified)", "MEASUREMENT_QUALIFIER": "<", "pIC50": 4.52}
{"MOLECULE": "O=c1[nH]c(-c2ccc(O)cc2)nc2sc3c(c12)CCCCC3", "MEASUREMENT_QUALIFIER": "=", "pIC50": 5.48}
{"MOLECULE": "O=c1[nH]c(-c2cccc(Br)c2)nc2sc3c(c12)CCC3", "MEASUREMENT_QUALIFIER": "<", "pIC50": 4.52}
{"MOLECULE": "O=c1[nH]c(-c2ccc(C(F)(F)F)cc2)nc2sc3c(c12)CCCCC3", "MEASUREMENT_QUALIFIER": "<", "pIC50": 4.52}
{"MOLECULE": "CN1CCc2c(sc3nc(-c4cccc(Br)c4)[nH]c(=O)c23)C1", "MEASUREMENT_QUALIFIER": "=", "pIC50": 5.08}
